Data provenance: ChEMBL document CHEMBL1777738

- Tgt: Aurora kinase B (Homo sapiens, UniProt Q96GD4)
- Sequence (Q96GD4 whole entry): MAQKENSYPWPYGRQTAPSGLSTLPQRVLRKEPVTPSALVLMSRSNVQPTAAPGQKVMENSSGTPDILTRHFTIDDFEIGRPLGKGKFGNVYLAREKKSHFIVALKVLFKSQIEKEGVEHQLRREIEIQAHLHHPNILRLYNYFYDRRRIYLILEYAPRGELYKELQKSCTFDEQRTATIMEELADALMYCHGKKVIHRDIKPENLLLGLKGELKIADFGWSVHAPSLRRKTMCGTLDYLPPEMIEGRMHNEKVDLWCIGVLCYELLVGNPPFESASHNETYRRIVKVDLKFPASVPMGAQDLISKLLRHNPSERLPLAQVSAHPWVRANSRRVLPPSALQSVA
Measured endpoint: Ki (nM)
Note: unit nM is implicit; provide only the numeric part.

## Input Look up Ki: Cc1cc(Nc2cc(C)c(C#N)c(NC(C)CCCC(C)(C)O)n2)n[nH]1.Cl (racemic)
## Output 101

====

- Assay details: Drug level in rat serum at 30 mg/kg, po after 24 hrs
- Type: ADME, organism-based
- Parameters: dose 30 mg/kg, route oral
- Condition info: read-out: Drug uptake
Measured endpoint: concentration at 24 h (nM)
Express your answer in nM, writing the number without its unit.

## Input For the molecule Cc1cc(Nc2cc(C)c(C#N)c(NC(C)CCCC(C)(C)O)n2)n[nH]1.Cl (racemic) , what concentration at 24 h is on record?
## Output 52

====

- Assay details: Tmax in rat at 30 mg/kg, po
- Assay type: ADME, organism-based
- Set-up: dose 30 mg/kg, route oral
- Condition info: in vivo
Measured endpoint: Tmax (h)
Please respond with the number in h and leave the unit unwritten.

## Input What does the data say about its Tmax? Entry: Cc1cc(Nc2cc(C)c(C#N)c(NC(C)CCCC(C)(C)O)n2)n[nH]1.Cl (racemic)
## Output 1.2

====

Provide the reported pKi of each item.
// pKi here means minus log10 of the molar concentration (mol/L)

## Input What reported pKi corresponds to Cc1cc(Nc2cc(C)c(C#N)c(NC(C)CCCC(C)(C)O)n2)n[nH]1.Cl (racemic) on Aurora kinase A (Homo sapiens)?
## Output 8.92

## Input Fill in the recorded pKi for this compound, with Aurora kinase A (Homo sapiens) as test system: "CCCCCCSc1nc(Nc2cc(C)n[nH]2)cc(C)c1C#N"
Sequence (O14965 whole entry): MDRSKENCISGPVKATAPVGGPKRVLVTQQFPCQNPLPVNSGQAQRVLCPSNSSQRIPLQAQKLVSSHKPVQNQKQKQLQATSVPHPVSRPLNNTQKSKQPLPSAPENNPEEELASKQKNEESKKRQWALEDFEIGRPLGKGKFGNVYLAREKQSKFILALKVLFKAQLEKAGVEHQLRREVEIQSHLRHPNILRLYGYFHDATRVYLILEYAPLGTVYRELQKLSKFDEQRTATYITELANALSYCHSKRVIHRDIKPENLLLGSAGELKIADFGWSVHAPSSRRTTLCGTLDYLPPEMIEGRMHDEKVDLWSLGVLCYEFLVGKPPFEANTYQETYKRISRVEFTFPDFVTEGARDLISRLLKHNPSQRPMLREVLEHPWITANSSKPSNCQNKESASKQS
## Output 8.42

## Input Query the reported pKi for Aurora kinase A (Homo sapiens); item: "Cc1cc(Nc2cc(C)c(C#N)c(N[C@@H](C)CCCC(C)(C)O)n2)[nH]n1"
## Output 9.23

====

- Tested on: HCT-116
- Assay details: Antiproliferative activity against human HCT116 cells
- Assay type: functional, cell-based
Would you mind telling me the reported IC50 of each entry?
Report the value in nM with no unit label.

## Input Requested field: IC50. Item: "Cc1cc(Nc2cc(C)c(C#N)c(N[C@@H](C)CCCC(C)(C)O)n2)[nH]n1"
## Output 52

## Input // IC50 lookup, key: Cc1cc(Nc2cc(C)c(C#N)c(NC(C)CCCC(C)(C)O)n2)n[nH]1.Cl (racemic)
## Output 115
